Assembled from different publications: IC50 for Cyclin-dependent kinase 2 (Homo sapiens, UniProt P24941).
Checkbox rule: IC50 lower than 100 nM = rule met; IC50 not lower than 100 nM = rule not met.

// known answers, use as guide
CN(C)C(=O)c1sc2cnc(Nc3ccc(N4CCNCC4)cn3)cc2c1C1CCCCC1 : rule not met
COc1ccc(C(=O)Nc2ccc(C(=O)N3CCC(c4ccncc4)C3)s2)c(C)c1 (centres unmarked) : rule not met
CN1CCN(c2cccc(Nc3cc4c(C5CCCC5)c(C#N)sc4cn3)c2)CC1 : rule met

Input line: Given the entry Cn1nc(-c2cccs2)cc1NC(=O)c1ccc(C(=O)Nc2ccc(-n3cncn3)cc2)s1 , would its reported IC50 be below 100 nM?
Output line: rule not met

Input line: What do you have for NS(=O)(=O)c1ccc(Nc2nc(Nc3ccc4[nH]ncc4c3)nc3[nH]ncc23)cc1 ?
Output line: rule not met

Input line: What do you have for CS(=O)(=O)N1CCC(Nc2ncc3cc(C#N)c(=O)n(C4CCCC4)c3n2)CC1 ?
Output line: rule met

Input line: What do you have for COc1ccc(C(=O)Nc2ccc(C(=O)N3CCC(c4ccccn4)C3)s2)c(C)c1 (centres unmarked) ?
Output line: rule not met

Input line: What do you have for CN1CCN(c2ccc(Nc3ncc(-c4cccc(OC5CCCC5)c4)o3)cc2C(F)(F)F)CC1 ?
Output line: rule met

Input line: What do you have for CC(C)N1CCOc2c(F)cc(-c3nc(Nc4ccc(N5CCN(C)C(=O)C5)cn4)ncc3F)cc21 ?
Output line: rule not met

---

Assembled from different publications: IC50 for Cyclin-dependent kinase 2 (Homo sapiens, UniProt P24941).

Example entries and their recorded answers appear below.
CS(=O)(=O)N1CCC(Nc2ncc3cc(C#N)c(=O)n(C4CC5CC5C4)c3n2)CC1 (centres unmarked) : 0.007 µM
N#Cc1cc2cnc(Nc3ccc4c(c3)CCNC4)nc2n(C23CC(C2)C3)c1=O : 0.242 µM
c1cc(OC2CCCC2)cc(-c2cnc(Nc3ccc(N4CCSCC4)cc3)o2)c1 : < 10 µM
COc1ccc(NC(=O)c2ccc(C(=O)Nc3ccc4nccnc4c3)s2)c(C)c1 : ≥ 40 µM
O=C(Nc1ccc(-n2cncn2)cc1)c1ccc(C(=O)N[C@@H]2CC3CCC2C3)s1 (some centres unmarked) : ≥ 40 µM

Input line: Which measured IC50 value corresponds to O=C(Nc1ccc(-n2cncn2)c(F)c1)c1ccc(C(=O)Nc2ccccc2-c2ccccc2)s1 ?
Output line: 1 to 40 µM

Input line: What do you have for c1ccc(-c2cnc(Nc3ccc(CN4CCOCC4)cc3)o2)cc1 ?
Output line: < 10 µM

Input line: What do you have for O=C(NCc1cccnc1)c1ccc(C(=O)Nc2ccc(-n3cncn3)cc2)s1 ?
Output line: ≥ 40 µM

---

pIC50: −log10 of the molar value.
Assembled from different publications: pIC50 for Cyclin-dependent kinase 2 (Homo sapiens).

Cc1ccccc1NC(=O)c1ccc(C(=O)Nc2ccc(-n3cncn3)cc2)s1 : ≥ 6.00
NS(=O)(=O)c1ccc(Nc2nc(Nc3ccccn3)c3cn[nH]c3n2)cc1 : 5.12
C=CC(=O)Nc1ccc(Nc2n[nH]c3c2CN(C(=O)N[C@H](CN(C)C)C2CCOCC2)C3(C)C)nc1 : < 5.00
Cn1cc(-c2cnn3c(N)c(Br)c([C@H]4CCC[C@@H](N)C4)nc23)cn1 : 6.36
COc1ccc(NC(=O)c2ccc(C(=O)Nc3ccc(-n4cncn4)cc3)s2)cc1O : ≤ 4.40
CS(=O)(=O)N1CCC(Nc2ncc3cc(C4CC4)c(=O)n(C4CCCC4)c3n2)CC1 : 6.36

Input line: Field: pIC50 (Cyclin-dependent kinase 2 (Homo sapiens)). Entry: CN1CCN(c2ccccc2NC(=O)c2ccc(C(=O)Nc3ccc(-n4cncn4)c(F)c3)s2)CC1
Output line: ≤ 4.40

Input line: What do you have for O=C(Nc1ccc(-n2cncn2)cc1)c1ccc(C(=O)Nc2cccc(Cl)c2)s1 ?
Output line: 4.40 to 6.00

Input line: What do you have for COC1(c2c(C(=O)N(C)C)sc3cnc(Nc4ccc(N5CCNCC5)cn4)cc23)CCCC1 ?
Output line: 6.91

Input line: What do you have for C=CC(=O)Nc1ccc(C(=O)Nc2n[nH]c3c2CN(C(=O)NC2(CN(C)C)CC2)C3(C)C)cc1 ?
Output line: < 5.00

Input line: What do you have for NS(=O)(=O)c1ccc(Nc2nc(NCc3ccccc3)c3cn[nH]c3n2)cc1 ?
Output line: 5.80

Input line: What do you have for COc1ccccc1NC(=O)c1ccc(C(=O)Nc2ccc(-n3cncn3)cc2)s1 ?
Output line: ≤ 4.40

Input line: What do you have for COc1ccc(NC(=O)c2ccc(C(=O)Nc3ccc(-c4nnn[nH]4)cc3)s2)c(C)c1 ?
Output line: ≤ 4.40

Input line: What do you have for COc1ccc(NC(=O)c2ccc(C(=O)N3CCC(c4ccccn4)C3)s2)c(C)c1 (centres unmarked) ?
Output line: 4.40 to 6.00

Input line: What do you have for CN1CCC(N(C)C(=O)c2ccc(C(=O)Nc3ccc(-n4cncn4)c(F)c3)o2)CC1 ?
Output line: ≤ 4.40

Input line: What do you have for CNS(=O)(=O)Cc1ccc(NN=C2C(=O)Nc3cc(C)c(O)c(C)c32)cc1 ?
Output line: 7.00 to 7.29

Input line: What do you have for CC(C)c1c2c3nc(Nc4ccc(N5CCNCC5)cn4)ncc3n(C)c2nn1C ?
Output line: 5.22
